- Assay Name: Clearance in rat liver microsomes at 1 umol/L after 20 mins by HPLC analysis in presence of NADPH
- Format: ADME, Microsome
- Assay Conditions: read-out: CLH
Parameter Measured: microsomal CLint at 1 µM

# count of solved cases: 5
> print(dat)
                                 smiles.str         result
1  CCCCCS(=O)(=O)NC(=O)/C=C/c1ccc(OCCOC)cc1Oc1ncc(C(F)(F)F)cc1Cl    6 µL/min/mg
2  CCCCCS(=O)(=O)NC(=O)CCc1ccc(OCC(=O)N(CC)CC)cc1Oc1ncc(C(F)(F)F)cc1Cl   92 µL/min/mg
3  CCCCCS(=O)(=O)NC(=O)/C=C/c1ccc(OCCCS(C)(=O)=O)cc1Oc1ncc(C(F)(F)F)cc1Cl  < 1 µL/min/mg
4  CCCCCS(=O)(=O)NC(=O)/C=C/c1ccc(OCCOC)cc1Oc1ncccc1Cl   15 µL/min/mg
5  CCCCCS(=O)(=O)NC(=O)/C=C/c1ccc(OCCOC)cc1Oc1ccc(C(F)(F)F)cc1Cl   10 µL/min/mg

IN: For CCCCCS(=O)(=O)NC(=O)/C=C/c1ccc(OCCCOC)cc1Oc1ncc(C(F)(F)F)cc1Cl , what is its reported microsomal CLint at 1 µM?
OUT: 15 µL/min/mg

IN: Query CCCCCS(=O)(=O)NC(=O)/C=C/c1ccc(OCCOC)cc1Oc1ccc(C(F)(F)F)cn1 next
OUT: < 1 µL/min/mg

IN: Query CCCCCS(=O)(=O)NC(=O)/C=C/c1ccc(OCCOC)cc1Oc1ncc(Cl)cc1Cl next
OUT: 9 µL/min/mg

* * *

- Assay Name: AUC (0 to 24 hrs) in Wistar fatty rat at 0.18 mg/kg, po
- Assay type: ADME, organism-based
- Parameters: time < 24 hr, dose 0.18 mg/kg, route oral
- Assay Conditions: plasma
Parameter Measured: AUC(0-t) at 24 h (ng·h/mL)
Lab book: enter the figure in ng·h/mL, no units written.

IN: For CCCCCS(=O)(=O)NC(=O)/C=C/c1ccc(OCCOC)cc1Oc1ncc(C(F)(F)F)cc1Cl , what is its reported AUC(0-t) at 24 h?
OUT: 15300

* * *

- Target Or Test System: Peroxisome proliferator-activated receptor gamma (Homo sapiens)
- Assay Name: Transactivation of human PPARgamma1 expressed in CHO-K1 cells co-expressing RXRalpha and PPRE after 1 day by luciferase reporter gene assay
The entries below come with measured pEC50 values attached.
# pEC50: negative log10 of molar concentration; output just the value

> print(dat)
                                   compound  number
1  CCCCCS(=O)(=O)NC(=O)/C=C/c1ccc(OCCC(C)=O)cc1Oc1ncc(C(F)(F)F)cc1Cl    7.23
2  CCCCCS(=O)(=O)NC(=O)/C=C/c1ccc(OCCOC)cc1Oc1ccc(C(F)(F)F)cc1Cl    7.03

IN: For CCCCCS(=O)(=O)NC(=O)/C=C/c1ccc(OCCOC)cc1Oc1ncc(Cl)cc1Cl , what is its reported pEC50?
OUT: 6.72

IN: Query CCCCCS(=O)(=O)NC(=O)C1CC1c1ccc(OCCOC)cc1Oc1ncc(C(F)(F)F)cc1Cl (configuration not stated) next
OUT: 8.26

IN: Query CCCCCNC(=O)CCc1ccc(OC(C)C)cc1Oc1ncc(C(F)(F)F)cc1Cl next
OUT: 6.54

IN: Query CCCCCS(=O)(=O)NCCCc1ccc(OCCOC)cc1Oc1ncc(C(F)(F)F)cc1Cl next
OUT: 7.49

IN: Query CCCCCS(=O)(=O)NC(=O)CCc1ccccc1Oc1ncc(C(F)(F)F)cc1Cl next
OUT: 7.21

IN: Query CCCCOC(=O)NCCCc1ccc(OCCOC)cc1Oc1ncc(C(F)(F)F)cc1Cl next
OUT: 7.42

IN: Query COCCOc1ccc(CCC(=O)NS(=O)(=O)c2ccc(Cl)cc2)c(Oc2ncc(C(F)(F)F)cc2Cl)c1 next
OUT: 8.07

IN: Query CCCCCS(=O)(=O)NC(=O)/C=C/c1ccc(OCCCS(C)(=O)=O)cc1Oc1ncc(C(F)(F)F)cc1Cl next
OUT: 6.49

* * *

- Target Or Test System: Peroxisome proliferator-activated receptor gamma (Homo sapiens, UniProt P37231)
- Sequence (P37231 whole entry): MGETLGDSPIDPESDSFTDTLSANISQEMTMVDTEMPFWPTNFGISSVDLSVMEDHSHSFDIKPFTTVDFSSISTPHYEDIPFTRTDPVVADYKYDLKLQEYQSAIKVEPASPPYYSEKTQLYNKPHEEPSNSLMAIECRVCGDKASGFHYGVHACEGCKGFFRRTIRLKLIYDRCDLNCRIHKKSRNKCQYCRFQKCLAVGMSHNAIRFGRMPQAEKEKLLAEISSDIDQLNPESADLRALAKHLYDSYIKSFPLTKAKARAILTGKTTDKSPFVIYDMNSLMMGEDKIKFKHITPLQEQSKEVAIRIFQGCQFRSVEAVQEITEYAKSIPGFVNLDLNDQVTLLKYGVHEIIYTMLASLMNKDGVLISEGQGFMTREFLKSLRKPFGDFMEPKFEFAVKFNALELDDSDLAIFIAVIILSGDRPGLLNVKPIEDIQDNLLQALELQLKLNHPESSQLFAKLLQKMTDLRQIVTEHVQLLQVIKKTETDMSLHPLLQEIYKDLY
- Assay Name: Displacement of [3H]-AD-5061 from human GST-tagged PPARgamma
Parameter Measured: pIC50
# pIC50: negative log10 of molar concentration; output just the value

IN: For CCCCCS(=O)(=O)NC(=O)/C=C/c1ccc(OCCOC)cc1Oc1ncc(C(F)(F)F)cc1Cl , what is its reported pIC50?
OUT: 6.48

* * *

- Target Or Test System: Peroxisome proliferator-activated receptor delta (Homo sapiens)
- Sequence (Q03181 whole entry): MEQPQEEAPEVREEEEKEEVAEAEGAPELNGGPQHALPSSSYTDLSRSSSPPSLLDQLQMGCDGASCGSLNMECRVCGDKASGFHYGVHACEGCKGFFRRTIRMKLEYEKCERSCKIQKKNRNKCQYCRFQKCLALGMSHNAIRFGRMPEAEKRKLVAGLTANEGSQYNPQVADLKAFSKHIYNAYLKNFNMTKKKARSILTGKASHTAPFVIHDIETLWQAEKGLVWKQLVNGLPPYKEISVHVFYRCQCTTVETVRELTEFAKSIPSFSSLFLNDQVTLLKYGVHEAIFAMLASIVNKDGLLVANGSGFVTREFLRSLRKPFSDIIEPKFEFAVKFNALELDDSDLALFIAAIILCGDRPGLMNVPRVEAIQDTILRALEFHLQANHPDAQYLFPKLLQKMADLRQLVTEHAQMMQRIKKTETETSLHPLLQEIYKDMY
- Assay Name: Transactivation of human PPARdelta expressed in african green monkey COS1 cells after 1 day by luciferase reporter gene assay
Parameter Measured: EC50

IN: For CCCCCS(=O)(=O)NC(=O)/C=C/c1ccc(OCCOC)cc1Oc1ncc(C(F)(F)F)cc1Cl , what is its reported EC50?
OUT: > 10 µM

* * *

- Assay Name: Clearance in human liver microsomes at 1 umol/L after 2 hrs by HPLC analysis in absence of NADPH
- Format: ADME, Microsome
- Assay Conditions: read-out: CLH
The entries below come with measured metabolised at 2 h, 1 µM values attached.
The number alone won't do; follow it with the unit.

# count of solved cases: 2
> print(dat)
                                   compound  result
1  CCCCCS(=O)(=O)NC(=O)CCc1ccc(OCCOC)cc1Oc1ncc(C(F)(F)F)cc1Cl   50.1%
2  CCCCCS(=O)(=O)NC(=O)C1CC1c1ccc(OCCOC)cc1Oc1ncc(C(F)(F)F)cc1Cl (stereo not drawn)   73.8%

IN: For CCCCCS(=O)(=O)NC(=O)/C=C/c1ccc(OCCOC)cc1Oc1ncc(C(F)(F)F)cc1Cl , what is its reported metabolised at 2 h, 1 µM?
OUT: 94.8%

* * *

- Assay Name: Clearance in human liver microsomes at 1 umol/L after 20 mins by HPLC analysis in presence of NADPH
- Type: ADME, Microsome
- Assay Conditions: read-out: CLH
Parameter Measured: microsomal CLint at 1 µM (µL/min/mg)
Lab book: enter the figure in µL/min/mg, no units written.

> print(dat)
                                   compound  unit.descriptor  number
1  CCCCCS(=O)(=O)NC(=O)OCc1ccc(OCCOC)cc1Oc1ncc(C(F)(F)F)cc1Cl        µL/min/mg      23
2  CCCCCS(=O)(=O)NC(=O)/C=C/c1ccc(OCCCS(C)(=O)=O)cc1Oc1ncc(C(F)(F)F)cc1Cl        µL/min/mg       6

IN: For CCCCCS(=O)(=O)NC(=O)/C=C/c1ccc(OCCOC)cc1Oc1ccc(C(F)(F)F)cc1Cl , what is its reported microsomal CLint at 1 µM?
OUT: 14

IN: Query CCCCCNS(=O)(=O)NC(=O)CCc1ccc(OCCOC)cc1Oc1ncc(C(F)(F)F)cc1Cl next
OUT: 70

IN: Query CCCCCS(=O)(=O)NC(=O)C1CC1c1ccc(OCCOC)cc1Oc1ncc(C(F)(F)F)cc1Cl (stereo not drawn) next
OUT: 40

* * *

- Assay Name: Clearance in rat liver microsomes at 1 umol/L after 20 mins by HPLC analysis in presence of NADPH
- Format: ADME, Microsome
- Assay Conditions: read-out: CLH
Parameter Measured: hepatic extraction ratio at 20 min, 1 µM

IN: For CCCCCS(=O)(=O)NC(=O)C1CC1c1ccc(OCCOC)cc1Oc1ncc(C(F)(F)F)cc1Cl (stereo unspecified) , what is its reported hepatic extraction ratio at 20 min, 1 µM?
OUT: 0.26

* * *

- Assay Name: Clearance in rat liver microsomes at 1 umol/L after 20 mins by HPLC analysis in presence of NADPH
- Assay type: ADME, Microsome
- Assay Conditions: read-out: CLH
Classification field: criterion met = microsomal CLint at 1 µM at or over 20 µL/min/mg; criterion not met = microsomal CLint at 1 µM under 20 µL/min/mg.

Please review the entries below; each comes with its answer.
> print(dat)
                                   compound     assigned.class
1  CCCCCS(=O)(=O)NC(=O)/C=C/c1ccc(OCCC(C)=O)cc1Oc1ncc(C(F)(F)F)cc1Cl  criterion not met
2  CCCCCS(=O)(=O)NC(=O)C(C)Cc1ccc(OCCOC)cc1Oc1ncc(C(F)(F)F)cc1Cl (stereo not drawn)      criterion met
3  CCCCCS(=O)(=O)NC(=O)CCc1ccc(OCCN2CCCC2=O)cc1Oc1ncc(C(F)(F)F)cc1Cl      criterion met
4  CCCCCS(=O)(=O)NC(=O)/C=C/c1ccc(OCCCC#N)cc1Oc1ncc(C(F)(F)F)cc1Cl  criterion not met
5  CCCCCS(=O)(=O)NC(=O)C(C)(C)Cc1ccc(OCCOC)cc1Oc1ncc(C(F)(F)F)cc1Cl      criterion met

IN: I'd appreciate it if you could say whether CCCCCS(=O)(=O)NC(=O)C(Cc1ccc(OCCOC)cc1Oc1ncc(C(F)(F)F)cc1Cl)OC (stereo not drawn) has microsomal CLint at 1 µM at least equal to 20 µL/min/mg.
OUT: criterion not met

IN: Query CCCCCS(=O)(=O)NC(=O)CCc1ccc(OCCOC)cc1Oc1ncc(C(F)(F)F)cc1Cl next
OUT: criterion met
